Data origin, for the record: the supplement of paper PMC10567573

Protocol: protein stability index of a GFP-peptide fusion (GPS, HEK-293T) (PSI 1-6); higher = more stable;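 note: 24-mer peptide tiles fused after GFP, lentivirally expressed, FACS-sorted into six equal bins by GFP/DsRed ratio, decoded by Illumina sequencing, PSI is the read-weighted mean bin number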
Condition details: treatment: MLN4924 1 uM, 8 h; c terminus: a fixed tail appended

{"columns": ["Item sequence", "protein stability index"],
 "data": [
  ["VLAIPRRLRVELECEEGELSFYDA [TRIM35]", 3.08],
  ["RHFGTILNYLRDGSVPLPESTREL [KCTD13]", 2.94],
  ["AYLELEITLSQEQIQKYTDCLQFY [RTN1]", 3.04]
]}

###

Protocol: protein stability index of a GFP-peptide fusion (GPS, HEK-293T) (PSI 1-6); higher = more stable
Condition details: treatment: DMSO; c terminus: a fixed tail appended
Listed here: items and their measured protein stability index.

{"columns": ["Item sequence", "protein stability index"],
 "data": [
  ["SDTTHLVTLGGVLRQQLVVSKELR [KLHL13]", 3.04],
  ["AFPGASHESSGNPPLRVIVKDALF [RHOBTB3]", 2.96],
  ["LILFAWGTLLFYIGGHLVRDNDHP [FUT8]", 2.95]
]}

###

Protocol: protein stability index of a GFP-peptide fusion (GPS, HEK-293T) (PSI 1-6); higher = more stable
Condition details: treatment: MLN4924 1 uM, 8 h; c terminus: a fixed tail appended
Readout label: protein stability index

{"columns": ["Item sequence", "Experimental value"],
 "data": [
  ["PIMSGQGLAGFFASVAMICAIASG [SLC29A1]", 3.13],
  ["REVMESAVGNSSGSGQNEESPRKR [FBXO28]", 5.49],
  ["RREQAAAAPFPSPAPASPAISVVG [TFE3]", 4.24],
  ["DLIGLPWVCFIYTIMSLASLLFVV [SLC2A12]", 3.95],
  ["ILTIICYLGLPRLEFYRYYQQLKL [SLC29A1]", 3.08]
]}

###

Protocol: protein stability index of a GFP-peptide fusion (GPS, HEK-293T) (PSI 1-6); higher = more stable
Condition details: treatment: MLN4924 1 uM, 8 h; c terminus: a fixed tail appended

{"columns": ["Item sequence", "protein stability index"],
 "data": [
  ["VTPKKSPPPKTNLTPGQSDSAKRE [FAN1]", 5.35],
  ["CPPGGIHQVTVNESLLAPLNVELD [KRT71]", 4.54],
  ["RPPAYSPAQRSHTYTHGLGLHRRP", 3.75],
  ["GGSCRAPSTYGGGLSVSSRFSSGG [KRT16]", 3.02],
  ["SPISSISPGLHSFTDHQRLMKRRK [KCNK9]", 4.8],
  ["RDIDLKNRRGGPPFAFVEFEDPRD [SRSF1]", 4.27],
  ["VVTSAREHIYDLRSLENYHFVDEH [CLINT1]", 3.15],
  ["GKGEGPIWLDNLHCTGNEATLAAC [LOXL2]", 3.52],
  ["TCLTGVLGVGLGVEISRRLRHSNP [SPNS1]", 2.09],
  ["RVEFPRSGRGTGRGGGGGGGGGAP [SRSF1]", 4.8],
  ["RENMSDGDTSATESGDEVPVELYT [KMT2E]", 5.21],
  ["GRQKYKRRPEVDPLPFPGPFPAGP [ESRRA]", 4.02],
  ["QSNLEPLSPMTASSFLSFAELFSY [FEM1A]", 2.42],
  ["VLRSWYEKNKHIFPASRWEPYDPE [FAM50A]", 3],
  ["PPKQAQKEQRKQMKGRGQLEKPPA [TBC1D10A]", 5.29],
  ["SFLWQRGRKFLQKHLNASNPTEPA [TOR1AIP2]", 3.05],
  ["ESSQTDLKLVAHPRAKSKVWKYFG [ZBED1]", 3.42],
  ["EEADDTRYTQGTGGDEVDDSVSVN [ZC3H15]", 5.62],
  ["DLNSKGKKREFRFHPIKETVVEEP [INTS3]", 3.64],
  ["TIKRSSQTGEWQNIAIMTEEPELS [GFOD1]", 4.26],
  ["VDAAYANKVELQAKVESMDQEIKF [KRT71]", 4.87],
  ["DCVDGLFKEVKEKFKGWVSYSTSE [DLC1]", 3.33],
  ["WRDSKGKDKEYAEIIRKQVSATKA [UBE2R2]", 4.07],
  ["WNHIRLQRTAKGKPVLAKDSSNPY [AASDHPPT]", 3.19],
  ["VPVLKPMDLMVEVSPRRIFANGHT [PPP2R2C]", 2.75],
  ["VDEKGEKVRPSHKRCIVILREIPE [LARP4]", 3.07],
  ["NDADKAINTLNGLKLQTKTIKVSY [ELAVL3]", 3.11],
  ["GMDPERLKAFNMFVRLFVDENLDR [NOL4L]", 2.39],
  ["EEDSFYRSSYPQQQGLGASYRTES [TBX5]", 4.22],
  ["KTHTGEKPHRCHNCGKSFSRLTAL [ZNF449]", 2.67],
  ["GPEPKDKGSLPQPPITEVESQVFS [ZNF232]", 5.36],
  ["THSSVVLQGFDQLRLEGLLCDVTL [KLHL13]", 2.19],
  ["GAAAPATPTPVAAALDACSGNDPF [SNAP91]", 5.15],
  ["ATLFFHYIKTPLFNPEVAKYLKVP [IQUB]", 2.57]
]}
